Catalogue of molecules with associated AC50
test system: TFEB; test: TFEB nuclear translocation assay, HeLa wt cells; type: cell-based; settings: Homo sapiens, HeLa, 2 h, 2 hrs compound treatment, Table 1 does not say HeLa wt or TRPML1 KO

CN(C)S(=O)(=O)c1ccc(S(=O)(=O)Nc2ccccc2N2CCC(C)(C(C)(C)O)CC2)cc1 [Compound A-522] : 2.01 to 8 µM

Item: C[C@H]1COC[C@H](C)N1CC1CCN(c2c(F)cccc2NS(=O)(=O)c2ccc(S(=O)(=O)N(C)C)cc2)CC1 (racemic) [Compound A-763] | System: TFEB | AC50: ≤ 2 µM

Item: CN(C)S(=O)(=O)c1ccc(S(=O)(=O)Nc2ccccc2N2CCN(C(=O)N3CC4CC3C4)CC2)cc1 [Compound A-447] | System: TFEB | AC50: 2.01 to 8 µM

Item: CN(C)S(=O)(=O)c1ccc(S(=O)(=O)N(C)c2cc(Cl)ccc2N2CCOCC2)cc1 [Compound A-285] | System: TFEB | AC50: ≥ 10 µM

Item: C[C@@H]1CN(CC2CCN(c3c(F)cccc3[C@@H](C)S(=O)(=O)c3ccc(S(=N)(=O)N(C)C)cc3)CC2)C[C@H](C)O1 (single isomer, unassigned) [Compound A-902] | System: TFEB | AC50: ≥ 10 µM

Item: CC(C)S(=O)(=O)c1ccc(S(=O)(=O)Nc2ccccc2N2CCC(O)(c3ccc(F)cn3)CC2)cc1 [Compound A-413] | System: TFEB | AC50: 8.01 to 9.99 µM

Item: CC(C)(C)C(=O)N1CCN(c2ccccc2NS(=O)(=O)c2ccc(C(C)(C)C)cc2)CC1 [Compound A-516] | System: TFEB | AC50: 2.01 to 8 µM

Item: Cc1nn(S(=O)(=O)c2ccc(S(=O)(=O)N(C)C)cc2)cc1C1=CCN(c2ccc(Cl)cc2F)CC1 [Compound A-37] | System: TFEB | AC50: 2.01 to 8 µM

Item: C[C@@H](c1cccc(F)c1N1CCCCC1)S(=O)(=O)c1ccc(S(=N)(=O)N(C)C)cc1 (single isomer, unassigned) [Compound A-929] | System: TFEB | AC50: ≤ 2 µM

Item: CN(C)S(=O)(=O)c1ccc(S(=O)(=O)Nc2ccccc2N2CCN(C(=O)[C@@]34CCC[C@@H]3C4)CC2)cc1 (racemic) [Compound A-477] | System: TFEB | AC50: 2.01 to 8 µM

Item: COCC1(C)CCN(c2ccccc2NS(=O)(=O)c2cccc(C3CC3(F)F)c2)CC1 (stereo not shown) [Compound A-651] | System: TFEB | AC50: ≤ 2 µM

Item: CC(c1cccc(F)c1N1CCC(CN2C[C@@H](C)O[C@@H](C)C2)CC1)S(=O)(=O)c1ccc(N=S(C)(C)=O)cc1 (stereo partly shown) [Compound A-1002] | System: TFEB | AC50: ≥ 10 µM

Item: CC(C)(C)S(=O)(=O)c1ccc(S(=O)(=O)Nc2ccccc2N2CCC(c3c(F)cccc3F)CC2)cc1 [Compound A-213] | System: TFEB | AC50: ≤ 2 µM

Item: COc1ccc(S(=O)(=O)Nc2cccnc2N2CCN(c3ccc(C#N)cc3F)CC2)cc1 [Compound A-117] | System: TFEB | AC50: ≥ 10 µM

Item: CN(C)S(=O)(=O)c1ccc(S(=O)(=O)Nc2ccccc2N2CCC3(CC2)OC(=O)c2cc(F)cnc23)cc1 [Compound A-473] | System: TFEB | AC50: 2.01 to 8 µM

---

Catalogue of molecules with associated AC50
tested on: TFEB; test: TFEB nuclear translocation assay, HeLa wt cells; assay type: cell-based; settings: Homo sapiens, HeLa, 2 h, 2 hrs compound treatment, Table 1 does not say HeLa wt or TRPML1 KO

CN(C)S(=O)(=O)c1ccc(S(=O)(=O)N(C)c2cc(F)ccc2N2CCC3(CC2)COC(C)(C)C3)cc1 [Compound A-728] : 2010 to 8000 nM
CP(C)(=O)c1ccc(S(=O)(=O)Nc2ccccc2N2CCC(c3c(F)cccc3F)CC2)cc1 [Compound A-177] : ≥ 10000 nM
COCC1(C)CCN(c2c(NS(=O)(=O)c3ccc(S(=O)(=O)N(C)C)cc3)ccc3c2cnn3C)CC1 [Compound A-746] : ≤ 2000 nM

Recorded AC50 (molecule C[C@H]1CN(CC2CCN(c3c(F)cccc3NS(=O)(=O)c3ccc(S(=O)(=O)N(C)C)cc3)CC2)C[C@H](C)O1 [Compound A-826] ): ≤ 2000 nM

Recorded AC50 (molecule CN(C)S(=O)(=O)c1ccc(S(=O)(=O)Nc2cccc(F)c2N2CCC(CN3CC4CCC(C3)O4)CC2)cc1 [Compound A-762] ): ≤ 2000 nM

Recorded AC50 (molecule Cc1ccc(CS(=O)(=O)Nc2ccccc2N2CCC3(CC2)COC(C)(C)C3)cc1 [Compound A-711] ): ≤ 2000 nM

Recorded AC50 (molecule CCC1(N2CCCCC2)CCN(c2ccccc2NS(=O)(=O)c2ccc(S(=O)(=O)N(C)C)cc2)CC1 [Compound A-475] ): ≤ 2000 nM

Recorded AC50 (molecule Cc1noc(NS(=O)(=O)c2ccc(S(=O)(=O)N(C)C)cc2)c1C1=CCN(c2ccc(Cl)cc2F)CC1 [Compound A-65] ): ≥ 10000 nM

Recorded AC50 (molecule CN1CC(c2ccccc2)C2(CCN(c3ccccc3NS(=O)(=O)c3ccc(S(=O)(=O)N(C)C)cc3)CC2)C1 (centres unmarked) [Compound A-302] ): ≥ 10000 nM

Recorded AC50 (molecule CN(C)S(=O)(=O)c1ccc(S(=O)(=O)Nc2cccc(F)c2N2CCC(CN3CC4CC(C3)O4)CC2)cc1 [Compound A-791] ): ≥ 10000 nM

---

system: TFEB; test: TFEB nuclear translocation assay, HeLa wt cells; assay type: cell-based; settings: Homo sapiens, HeLa, 2 h, 2 hrs compound treatment, Table 1 does not say HeLa wt or TRPML1 KO
quantity kind: AC50

Example entries and their recorded answers appear below.
Cc1ccc(CS(=O)(=O)Nc2ccccc2N2CCC3(CC2)COC(C)(C)C3)c(F)c1 : 2010 to 8000 nM
CN(C)S(=O)(=O)c1ccc(S(=O)(=O)Nc2ccccc2N2CC3CC2CN3c2ccc(Cl)cc2F)cc1 (stereo not shown) : ≤ 2000 nM
CN1CC2(CCN(c3ccccc3NS(=O)(=O)c3ccc(S(C)(=O)=O)cc3)CC2)c2cccnc21 : 8010 to 9990 nM
CC(c1cccc(F)c1N1CCC(CN2C[C@@H](C)O[C@@H](C)C2)CC1)S(=O)(=O)c1ccc(S(=O)(=O)C(F)F)cc1 (single isomer, unassigned) [Compound A-807] : ≤ 2000 nM
CC1(C)CC2(CCN(c3ccccc3NS(=O)(=O)C3=Cc4ccccc4CC3)CC2)CO1 : 2010 to 8000 nM
CN(C)S(=O)(=O)c1ccc(S(=O)(=O)Nc2ccccc2N2CCC(O)(c3ccccc3)CC2)cc1 : ≤ 2000 nM

Lab note: next compound to report on.
Recorded AC50 (compound `CC1(C)CC2(CCN(c3ccccc3NS(=O)(=O)Cc3cccc(Cl)c3)CC2)CO1` ): ≤ 2000 nM

---

Catalogue of compounds with associated AC50
test system: TFEB; test: TFEB nuclear translocation assay, HeLa wt cells; assay type: cell-based; conditions: Homo sapiens, HeLa, 2 h, 2 hrs compound treatment, Table 1 does not say HeLa wt or TRPML1 KO

CN(C)S(=O)(=O)c1ccc(S(=O)(=O)Nc2ccccc2N2CCC(N)(c3ccc(Cl)cc3F)CC2)cc1 : ≤ 2000 nM
CN(C(=O)C1CCN(c2ccccc2NS(=O)(=O)c2ccc(S(=O)(=O)N(C)C)cc2)CC1)c1ccccc1 : 2010 to 8000 nM
COCC1(C)CCN(c2ccccc2NS(=O)(=O)c2ccc(S(=O)(=O)N(C)C)cc2)CC1 : ≤ 2000 nM
Cc1ccc(S(=N)(=O)Nc2ccccc2N2CCC(c3ccc(Cl)cc3F)CC2)cc1 (stereo not drawn) : 2010 to 8000 nM
CN(C)S(=O)(=O)c1ccc(S(=O)(=O)Nc2ccccc2N2CCCC23CCOC3)cc1 (stereo not drawn) : 2010 to 8000 nM

Recorded AC50 (compound COCC1(C)CCN(c2ccccc2NS(=O)(=O)c2ccc3c(c2)CC(OC)C3)CC1 (stereo not drawn) ): 2010 to 8000 nM

Recorded AC50 (compound `CN(C)S(=O)(=O)c1ccc(S(=O)(=O)Nc2ccccc2N2CCN(C3CCCC3)CC2)cc1` ): 2010 to 8000 nM

Recorded AC50 (compound `C[C@@H]1CN(CC2CCN(c3c(F)cccc3NS(=O)(=O)c3ccc(S(C)(=O)=O)cc3)CC2)C[C@H](C)O1` ): ≤ 2000 nM

Recorded AC50 (compound `CN(C)S(=O)(=O)c1ccc(S(=O)(=O)Nc2cccc(Cl)c2N2CCN(C(=O)C(C)(C)C)CC2)cc1` ): 2010 to 8000 nM

Recorded AC50 (compound CN(C)S(=O)(=O)c1ccc(S(=O)(=O)Nc2ccccc2N2CCC(C3COCCO3)CC2)cc1 (stereo not drawn) ): 2010 to 8000 nM

Recorded AC50 (compound `CN(C)S(=O)(=O)c1ccc(S(=O)(=O)Nc2cccc(F)c2N2CCC(CN3C[C@@H]4C[C@H]3CO4)CC2)cc1` ): ≤ 2000 nM

Recorded AC50 (compound `CN(C)S(=O)(=O)c1ccc(S(=O)(=O)Nc2ccccc2N2CCN(C(=O)C34CC5CC(CC(C5)C3)C4)CC2)cc1` ): ≤ 2000 nM

Recorded AC50 (compound C[C@@H]1CN(CC2CCCN(c3c(F)cccc3NS(=O)(=O)c3ccc(S(=O)(=O)N(C)C)cc3)CC2)C[C@H](C)O1 (stereo partly drawn) ): ≤ 2000 nM

Recorded AC50 (compound `CN(C)S(=O)(=O)c1ccc(S(=O)(=O)n2ccn(C3CCN(c4ccc(Cl)cc4F)CC3)c2=O)cc1` ): ≥ 10000 nM

Recorded AC50 (compound `O=S(=O)(Nc1ccccc1N1CCN(c2ncc(Cl)cc2F)CC1)c1ccc(S(=O)(=O)C(F)(F)F)cc1` ): ≤ 2000 nM
